Measured EC50 of individual entries
tested on: Streptococcus; test: Group A Streptococcus viability loss, dose response, counter-screen for streptokinase expression inhibitor project, luminescence, BacTiterGlo (AID 1915); type: functional, organism-based;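 further: potency for reduction of bacterial viability or growth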
Active and inactive are the calls of the source.

Molecule: S=C(NCc1ccco1)N1CCN(c2nc(-c3ccc(Cl)cc3)cs2)CC1
EC50: 32.1 µM (active)
--
Molecule: CSc1cccc(NC(=O)OC2CCCCCCCCCCC2)c1
EC50: 10.8 µM (active)
--
Molecule: COc1ccc(C(=O)CSc2nc(-c3ccccn3)nc(C)c2Cl)cc1
EC50: 36.4 µM (active)
--
Molecule: O=C(NC1CCCCC1)NC1C2CC3CC(C2)CC1C3 (stereo not given)
EC50: > 150 µM (not active)
--
Molecule: CC(C)C1C(c2ccccc2)N(C)C(c2ccccc2)CC1(O)c1ccccc1 (stereo not given)
EC50: 7.03 µM (active)

###

Target: UniProtKB P9WHJ3
Sequence (P9WHJ3 whole entry): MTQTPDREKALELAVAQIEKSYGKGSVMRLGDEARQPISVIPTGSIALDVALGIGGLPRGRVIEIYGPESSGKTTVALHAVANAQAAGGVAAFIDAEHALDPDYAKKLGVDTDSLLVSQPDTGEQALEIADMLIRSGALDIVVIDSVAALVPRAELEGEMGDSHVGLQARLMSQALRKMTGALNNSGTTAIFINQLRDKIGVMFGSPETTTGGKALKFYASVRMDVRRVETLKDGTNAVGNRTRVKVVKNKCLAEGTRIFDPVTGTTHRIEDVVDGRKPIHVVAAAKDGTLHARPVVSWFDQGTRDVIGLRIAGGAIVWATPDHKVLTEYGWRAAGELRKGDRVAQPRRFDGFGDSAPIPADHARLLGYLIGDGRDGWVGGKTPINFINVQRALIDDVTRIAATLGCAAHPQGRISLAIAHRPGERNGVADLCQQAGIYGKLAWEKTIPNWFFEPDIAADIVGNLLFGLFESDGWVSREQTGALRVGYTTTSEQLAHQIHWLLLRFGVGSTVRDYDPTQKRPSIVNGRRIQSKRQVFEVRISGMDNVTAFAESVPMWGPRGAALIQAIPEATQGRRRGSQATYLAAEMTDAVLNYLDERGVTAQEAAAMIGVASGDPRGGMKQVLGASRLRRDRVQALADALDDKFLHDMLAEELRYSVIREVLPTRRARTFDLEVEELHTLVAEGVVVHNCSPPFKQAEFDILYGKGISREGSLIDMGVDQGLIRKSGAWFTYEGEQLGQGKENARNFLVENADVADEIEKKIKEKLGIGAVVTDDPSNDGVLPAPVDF
Test: Fluorescence Cell-Free Homogeneous Dose Retest to Identify Inhibitors of RecA-Intein Splicing Activity. [Related pubchem assays (depositor defined):AID2097, AID2223, AID489010, AID492950]
Format: functional
Activity calls are given as the source filed them.
Classes used: yes (1) (active), no (0) (inactive)

Molecule: OC(COC(c1ccc(Cl)cc1)c1ccc(Cl)cc1)CN1CCc2ccccc2C1 (stereo not given)
Label: yes (1)

Molecule: CC(C)c1n[nH]c2c1C(c1ccc(OC(=O)c3ccco3)cc1)C(C#N)=C(N)O2 (stereo not given)
Label: yes (1)

Molecule: O=C(CSCc1ccc([N+](=O)[O-])cc1)N/N=C/c1cccnc1
Label: no (0)

Molecule: Cc1cccc(N2C(=O)C(Cl)=C(N3CCOCC3)C2=O)c1
Label: yes (1)

Molecule: CCOc1ccc2c(c1)C(NC(C)=O)C(=O)N2CCN1CCOCC1 (stereo not given)
Label: yes (1)

###

Measured AC50 of individual entries
molecular target: Cytochrome P450 2C19 (Homo sapiens, UniProt P33261); assay: Cytochrome panel assay with activity outcomes. Panel member name: p450-cyp2c19 Compounds with AC50 equal or less than 10 uM are considered active; format: functional; conditions: read-out: AC50
Sequence (P33261 whole entry): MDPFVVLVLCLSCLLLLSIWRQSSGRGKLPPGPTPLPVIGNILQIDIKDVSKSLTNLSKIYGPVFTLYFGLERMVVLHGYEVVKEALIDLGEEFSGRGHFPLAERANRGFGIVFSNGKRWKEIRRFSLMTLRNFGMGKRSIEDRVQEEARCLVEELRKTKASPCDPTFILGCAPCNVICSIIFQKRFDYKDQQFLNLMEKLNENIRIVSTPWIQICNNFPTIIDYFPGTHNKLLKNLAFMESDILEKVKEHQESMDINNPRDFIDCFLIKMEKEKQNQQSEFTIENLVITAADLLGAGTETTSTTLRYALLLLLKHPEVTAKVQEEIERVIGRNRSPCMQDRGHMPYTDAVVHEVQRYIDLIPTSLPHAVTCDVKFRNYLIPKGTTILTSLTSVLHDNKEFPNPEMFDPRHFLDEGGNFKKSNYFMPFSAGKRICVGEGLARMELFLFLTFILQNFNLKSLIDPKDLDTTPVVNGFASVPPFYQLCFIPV

Molecule: C=CC[C@@H]1C=C[C@@H](O/N=C\c2ccc(C(=O)N3[C@H](c4ccc(C)cc4)[C@@H](C)CC[C@H]3C(=O)OC)cc2)[C@@H](CO)O1
AC50: 3.16 µM (inconclusive)
--
Molecule: CCOc1ncnc2c1oc1nc(CC(C)C)c3c(c12)CC(C)(C)OC3
AC50: 39.8 µM (inconclusive)
--
Molecule: Oc1ccccc1C1Nc2cccc3cccc(c23)N1
AC50: 3.16 µM (inconclusive)
--
Molecule: CCCCCCCC/C=C\CCCCCCCC(=O)N[C@@H](CO)Cc1ccc(O)cc1
AC50: 31.6 µM (inconclusive)
--
Molecule: COC(=O)CCC(=O)NNC(=O)CCCOc1ccc(Cl)cc1Cl
AC50: 3.55 µM (inconclusive)
--
Molecule: Cc1cc(C)cc(-n2nnnc2SCC(=O)Nc2nc(-c3ccc(F)cc3)cs2)c1
AC50: 5.01 µM (inconclusive)
--
Molecule: CCOc1ccc(C(F)(F)F)cc1NC(=O)c1ccc(OC)c([N+](=O)[O-])c1
AC50: 0.282 µM (inconclusive)
--
Molecule: CCCN(C(=O)Cc1n[nH]c(N)n1)C1(C(=O)Nc2ccccc2C)CCCCC1
AC50: 20 µM (inconclusive)
--
Molecule: C[C@@]12CC[C@H]3[C@@H](CC[C@@H]4C[C@H](O)CC[C@]43C)[C@H]1CC[C@H]2O
AC50: 31.6 µM (inconclusive)
--
Molecule: COc1ccc(-n2c(=O)c(-c3ccccc3)nc3cncnc32)cc1
AC50: 39.8 µM (inconclusive)
--
Molecule: CC(C)(C)c1ccc(OCC(=O)N/N=C/c2cc(Br)ccc2OC(=O)c2ccco2)cc1
AC50: 1.26 µM (inconclusive)
--
Molecule: O=C1Nc2cc(Cl)c(Cl)cc2N(O)N1c1ccc(Cl)c(Cl)c1
AC50: 28.2 µM (inconclusive)
--
Molecule: COCC1C2CC[C@H]3C(OCc4ccc(F)cc4C(F)(F)F)OC[C@]4(C)[C@H]3C2=C(CN4C(=O)OC(C)(C)C)[C@H](C)C1COC (stereo partly specified)
AC50: 39.8 µM (inconclusive)
--
Molecule: CC1(C)Cc2ccccc2C(N/N=C/c2cccc(F)c2)=N1
AC50: 25.1 µM (inconclusive)
--
Molecule: Clc1ccc(C2=C3CCCCn4c(-c5ccccc5)c[n+](c43)C2)cc1
AC50: 1.12 µM (inconclusive)
--
Molecule: COC(=O)[C@@]1(Cc2ccc(F)cc2)[C@H]2c3cc(C(=O)N4CCCC4)n(Cc4ccccc4)c3C[C@H]2CN1C(=O)c1ccccc1
AC50: 31.6 µM (inconclusive)
--
Molecule: O=S(=O)(O)c1cc(/N=[N+](\[O-])c2cc(S(=O)(=O)O)c3ccccc3c2)cc2ccccc12
AC50: 3.98 µM (inconclusive)
--
Molecule: Cc1ccc(OC(=O)c2oc3ccc(F)cc3c2C)c(C)c1
AC50: 11.2 µM (inconclusive)
--
Molecule: COCCNC(=O)c1onc(CSc2ccccc2F)c1C(=O)O
AC50: 0.141 µM (inconclusive)
--
Molecule: O=C(O)COc1ccc(-c2nccc(-c3cccs3)n2)cc1
AC50: 31.6 µM (inconclusive)
--
Molecule: COc1ccc(C2NC(=O)c3sc4nc(C)c(C(C)=O)c(-c5ccc(Cl)cc5)c4c3N2)cc1 (stereo unspecified)
AC50: 2 µM (inconclusive)

###

Measured EC50 of individual entries
target: Streptokinase A (Streptococcus pyogenes serotype M1); assay: S. pyogenes streptokinase expression inhibitors, potency, dose response, plasminogen activation absorbance, OD405 (AID 1914); type: functional, Streptococcus pyogenes M1 GAS;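 further: secreted streptokinase activity via plasminogen activation per viability signal from cell pellet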
Sequence (P10520 whole entry): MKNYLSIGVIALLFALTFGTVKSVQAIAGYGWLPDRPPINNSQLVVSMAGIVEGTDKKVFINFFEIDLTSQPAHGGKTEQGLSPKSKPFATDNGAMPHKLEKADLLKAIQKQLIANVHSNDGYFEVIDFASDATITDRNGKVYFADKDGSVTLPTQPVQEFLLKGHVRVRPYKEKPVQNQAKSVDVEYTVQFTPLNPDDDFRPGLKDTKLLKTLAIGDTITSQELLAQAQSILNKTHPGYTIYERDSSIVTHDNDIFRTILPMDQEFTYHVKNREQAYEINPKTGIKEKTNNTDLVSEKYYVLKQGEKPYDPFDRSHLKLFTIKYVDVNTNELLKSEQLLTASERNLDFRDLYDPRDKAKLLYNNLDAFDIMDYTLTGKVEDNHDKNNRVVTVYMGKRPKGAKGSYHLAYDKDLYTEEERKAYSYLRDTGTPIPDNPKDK
Active and inactive are the calls of the source.

Compound: COc1ccccc1OCC(=O)NNC(=S)NC(=O)c1ccco1
Tested On: Streptokinase A (Streptococcus pyogenes serotype M1)
EC50: > 150 µM (not active)

Compound: O=C1/C(=C/c2cccs2)CCC/C1=C\c1cccs1
Tested On: Streptokinase A (Streptococcus pyogenes serotype M1)
EC50: 68.5 µM (active)

Compound: O=C(Nc1ccc(OC(F)(F)F)cc1)N1CCN(c2ccnc3cc(Cl)ccc23)CC1
Tested On: Streptokinase A (Streptococcus pyogenes serotype M1)
EC50: 12.7 µM (active)

Compound: Fc1ccccc1CNc1cc(Cl)cc(Cl)c1
Tested On: Streptokinase A (Streptococcus pyogenes serotype M1)
EC50: > 150 µM (not active)

Compound: Cc1cccc(NC(=S)/N=C(\N)Nc2nc(C)c3ccc(C)cc3n2)c1
Tested On: Streptokinase A (Streptococcus pyogenes serotype M1)
EC50: > 150 µM (inconclusive)

Compound: C/N=C1\S/C(=C\c2ccc(N3CCOCC3)c(F)c2)C(=O)N1C
Tested On: Streptokinase A (Streptococcus pyogenes serotype M1)
EC50: > 150 µM (not active)

Compound: Cn1nc(-c2ccccc2)c(CSc2cccc(Cl)c2)c1Cl
Tested On: Streptokinase A (Streptococcus pyogenes serotype M1)
EC50: 19.8 µM (active)

Compound: N#C/C(=C\c1c[nH]c2ccc(Br)cc12)c1ccccn1
Tested On: Streptokinase A (Streptococcus pyogenes serotype M1)
EC50: 51.6 µM (active)

Compound: O=C(NC1CCCCC1)NC1C2CC3CC(C2)CC1C3 (centres undefined)
Tested On: Streptokinase A (Streptococcus pyogenes serotype M1)
EC50: > 150 µM (not active)

Compound: CC(C)C1C(c2ccccc2)N(C)C(c2ccccc2)CC1(O)c1ccccc1 (centres undefined)
Tested On: Streptokinase A (Streptococcus pyogenes serotype M1)
EC50: 2.22 µM (active)

Compound: COC(=O)c1cccc(NC(=S)NCc2ccc(Cl)cc2)c1
Tested On: Streptokinase A (Streptococcus pyogenes serotype M1)
EC50: > 150 µM (not active)

Compound: CSc1cccc(NC(=O)OC2CCCCCCCCCCC2)c1
Tested On: Streptokinase A (Streptococcus pyogenes serotype M1)
EC50: 2.93 µM (active)

Compound: COc1ccc([C@H]2Oc3cc(O)cc(O)c3C(=O)C2[C@@H]2C(=O)c3c(O)cc(O)cc3O[C@@H]2c2ccc(OC)cc2)cc1 (some centres undefined)
Tested On: Streptokinase A (Streptococcus pyogenes serotype M1)
EC50: 1.7 µM (active)

Compound: SC1=NC[C@H](CC2CCCCC2)N1CC1CCCCC1
Tested On: Streptokinase A (Streptococcus pyogenes serotype M1)
EC50: 25.4 µM (active)

Compound: COc1ccc(C(=O)CSc2nc(-c3ccccn3)nc(C)c2Cl)cc1
Tested On: Streptokinase A (Streptococcus pyogenes serotype M1)
EC50: > 150 µM (not active)

Compound: Cc1cccc(NC(=O)c2[nH]cnc2C(=O)N[C@@H](CCCCNC(=O)OC(C)(C)C)C(=O)OC(C)(C)C)c1
Tested On: Streptokinase A (Streptococcus pyogenes serotype M1)
EC50: > 150 µM (not active)

Compound: O=C(CC1CCCCC1)c1c(O)c2ccccc2oc1=O
Tested On: Streptokinase A (Streptococcus pyogenes serotype M1)
EC50: > 150 µM (not active)

Compound: S=C(NCc1ccco1)N1CCN(c2nc(-c3ccc(Cl)cc3)cs2)CC1
Tested On: Streptokinase A (Streptococcus pyogenes serotype M1)
EC50: 36.4 µM (active)

Compound: CC1(C)Oc2ccc3ccc(=O)oc3c2C(/C=N/NC(N)=S)=C1O
Tested On: Streptokinase A (Streptococcus pyogenes serotype M1)
EC50: > 150 µM (not active)
